Measured values drawn from patent US20260250737A1 for this set.

tested on: SmLux; assay: Computationally generated LgLux variants expressed in E. coli, tested in lysates with SmLux and substrate 1c; format: biochemical; settings: 50 uM substrate 1c, before SmLux peptide addition
property.label: Baseline Signal (Normalized by expression)
Keep it simple and answer with nothing but the number.

Guide cases for Baseline Signal (Normalized by expression), answers given:
{"molecule": "5102 (protein) MSEEQIRQNLRRFYEALDSGDAITAASLFDPGVTITLWDGTTFTSVEEFREWFESQFSTSKDALREISSLEVRGDTVEVTVRLSFTRNGQKHTVDLLQLFKFVGNRVVADRVYVNPTG", "observed.value": 2169.2}
{"molecule": "5271 (protein) MTPEEIRENVRNFYAALASGDLEAAKALFDPGVTITLWDGTTFTSVEEFRAWFEEQFKTSKDALREIVSMEIEGDTVRVLVRLTFTRDGVEQVVDLLQLFKFV", "observed.value": 145}
{"molecule": "5267 (protein) MTPEEILANVRAFYAALASGDLAAAKALFDPGVTITLWDGTTFTSVEEFRAWFEEQFKTSKDALREIVSAEVEGDTVRVLVRLTFTRDGKVEEVDLLQLFKFV", "observed.value": 130.6}

Proceeding to the next molecule to report its Baseline Signal (Normalized by expression).
Entry 5105 (protein) MTPEEIIANVKKFYEALASGDLATAKSLFDPGTTITLWDGTTFTSLEEFLAWFEKQFKASKDAKREIVSIEVDGNVVKVLVRLTYTVDGKEKVVDLLQLLKFV ; Baseline Signal (Normalized by expression) = 167.4
